Assay system: full length active recombinant SYK enzyme (Homo sapiens, UniProt P43405)
Construct: full length active recombinant SYK enzyme (Millipore, Calif.); purchased Millipore
Assay info: Inhibition of Syk tyrosine phosphorylation activity (LANCE TR-FRET)
Format: biochemical
Condition notes: Table 3; 1 nM SYK, 100 μM ATP; read-out: Syk IC50 code
Experimental: The in vitro and in vivo human syk activities of the inventive compounds can be determined by various procedures known in the art, such as a test for their ability to inhibit the activity of human plasma syk. […] Inhibition of Syk Tyrosine Phosphorylation Activity Potency of candidate molecules for inhibiting syk tyrosine phosphorylation activity is assessed by measuring the ability of a test compound to inhibit syk-mediated tyrosine phosphorylation of a syk-specific substrate. […]
Documented IC50 across a set of molecules

{"Molecule": "CNc1nc(Nc2ccc3cn[nH]c3c2)nc2[nH]cc(-c3cccnc3)c12", "IC50": "10 to 100 nM"}
{"Molecule": "CC(=O)c1c[nH]c2nc(Nc3ccc4cn[nH]c4c3)nc(NC3CC3)c12", "IC50": "100 to 1000 nM"}
{"Molecule": "COc1ccc(Nc2nc(Nc3ccc4c(c3)CCC(=O)N4)nc3[nH]cc(C#N)c23)cc1", "IC50": "100 to 1000 nM"}
{"Molecule": "CN(C(=O)CO)c1ccc(Nc2nc(NC3CC3)c3cc[nH]c3n2)cc1", "IC50": "10 to 100 nM"}
{"Molecule": "CC(=O)N1CCN(c2ccc(Nc3nc(NC4CCC(N)CC4)c4cc[nH]c4n3)cc2)CC1 (centres unmarked)", "IC50": "10 to 100 nM"}
{"Molecule": "CN1C(=O)CCc2cc(Nc3nc(Nc4ccc(F)cc4)c4c(-c5ccncc5)c[nH]c4n3)ccc21", "IC50": "100 to 1000 nM"}
{"Molecule": "CN(C(=O)CCO)c1ccc(Nc2nc(NC3CCC3)c3cc[nH]c3n2)cc1", "IC50": "10 to 100 nM"}

// switching to the query molecule
Ask | Which IC50 value is on record for `CC(=O)N1CCN(c2ccc(Nc3ncc(C(N)=O)c(N4CCC(CNC(N)=O)CC4)n3)cc2)CC1` ?
Reply | > 1000 nM

====

Assay system: full length active recombinant SYK enzyme (Homo sapiens)
Construct: full length active recombinant SYK enzyme (Millipore, Calif.); purchased Millipore
Assay info: Inhibition of Syk tyrosine phosphorylation activity (LANCE TR-FRET)
Assay type: biochemical
Condition notes: Table 3; 1 nM SYK, 100 μM ATP; read-out: Syk IC50 code
Measurement type: IC50

Worked cases, answers included:
{"Molecule": "C[C@H](CO)Nc1nc(Nc2ccc(N3CCNCC3)cc2)nc2[nH]ccc12 [Example 98B]", "Measurement type": "IC50", "Observed measurement": "100 to 1000 nM"}
{"Molecule": "OC1CCN(c2ccc(Nc3nc(NC4CCC4)c4cc[nH]c4n3)cc2)CC1", "Measurement type": "IC50", "Observed measurement": "10 to 100 nM"}
{"Molecule": "CC(=O)N(C)c1ccc(Nc2nc(NC3CC3)c3c(-c4ccncc4)c[nH]c3n2)cc1", "Measurement type": "IC50", "Observed measurement": "10 to 100 nM"}
{"Molecule": "CC(=O)N1CCN(c2ccc(Nc3nc(N4CCC(CN)CC4)c4c(C#N)c[nH]c4n3)cc2)CC1", "Measurement type": "IC50", "Observed measurement": "10 to 100 nM"}
{"Molecule": "CNc1nc(Nc2ccc(N3CCN(C(C)=O)CC3)cc2)nc2[nH]cc(-c3ccncc3)c12", "Measurement type": "IC50", "Observed measurement": "100 to 1000 nM"}
{"Molecule": "NC(=O)c1cnc(-[n+]2ccn(-c3ccc(N)cc3)c2)nc1NC1CC1", "Measurement type": "IC50", "Observed measurement": "> 1000 nM"}

Ask | State the recorded IC50 for this entry: `CNC(=O)COc1cccc(Nc2nc(Nc3ccc4cn[nH]c4c3)nc3[nH]ccc23)c1`
Reply | 10 to 100 nM

Ask | IC50 lookup needed for CC(=O)N1CCN(c2ccc(Nc3nc(N[C@@H](C)CO)c4cc[nH]c4n3)cc2)CC1 [Example 99A] , thanks.
Reply | 100 to 1000 nM

Ask | Please report the recorded IC50 for `CNc1nc(Nc2ccc(N(C)C(=O)C3CC3)cc2)nc2[nH]ccc12` .
Reply | 100 to 1000 nM

Ask | If you can, please state the reported IC50 value of NC(=O)c1cccc(Nc2nc(Nc3ccc(N4CCNCC4)cc3)nc3[nH]ccc23)c1 [Example 95B] .
Reply | 100 to 1000 nM

Ask | Look at this molecule and give its reported IC50. `NC(=O)c1ccc(Nc2nc(NC3CC3)c3c(-c4ccncc4)c[nH]c3n2)cc1`
Reply | 10 to 100 nM

Ask | Quick one: IC50 for `O=C(O)CN1C(=O)CCc2cc(Nc3nc(NC4CCC4)c4cc[nH]c4n3)ccc21` ?
Reply | 10 to 100 nM

Ask | Quick one: IC50 for `N#Cc1c[nH]c2nc(Nc3ccc(S(N)(=O)=O)cc3)nc(NC3CC3)c12` ?
Reply | 1 to 10 nM

Cited source: patent US9139581B2
